Where do the numbers come from? From patent US20150291598A1.

system: P. falciparum (NF54 or 3D7 strain); assay: Assay for P. falciparum proliferation in infected human blood cells (SYBR Green); type: cell-based, Plasmodium falciparum; conditions: Plasmodium falciparum, Erythrocyte, 72 h, NF54 or 3D7 infected human erythrocytes, 72 hours; read-out: EC50 (nM), inhibitory efficacy in delaying P. falciparum proliferation in infected human blood cells
Quick reference for log10 of EC50 among some compounds
Heads up, the numbers here are log10 of EC50 in nM units.

Check out these entries, answers already filled in.
Recall the recorded log10 of EC50 for CN(C(=O)c1cn2c(-c3ccc(-n4cccn4)cc3)cnc2cn1)c1ccc(Cl)nc1 with P. falciparum (NF54 or 3D7 strain) and state it.
3.29

Recall the recorded log10 of EC50 for CC1(C)CCc2cc(F)ccc2N1C(=O)c1cn2c(-c3ccc(C(N)=O)cc3)cnc2cn1 with P. falciparum (NF54 or 3D7 strain) and state it.
1.28

Recall the recorded log10 of EC50 for CN(C(=O)c1cn2c(-c3ccc(C(N)=O)cc3)cnc2cn1)c1ccc(C#N)cn1 with P. falciparum (NF54 or 3D7 strain) and state it.
3.18

New cases:
Recall the recorded log10 of EC50 for CN(C(=O)c1ccc(C(F)(F)F)cc1)c1cn2c(-c3ccc(C(F)(F)F)cc3)cnc2cn1 with P. falciparum (NF54 or 3D7 strain) and state it.
2.49

Recall the recorded log10 of EC50 for CN(C(=O)c1cn2c(-c3ccc4c(cnn4C)c3)cnc2cn1)c1ccc(S(C)(=O)=O)cc1 with P. falciparum (NF54 or 3D7 strain) and state it.
3.87

Recall the recorded log10 of EC50 for CCOC(=O)c1cnc2cnc(C(=O)N(C)c3ccc(Cl)nc3)cn12 with P. falciparum (NF54 or 3D7 strain) and state it.
3.39

Recall the recorded log10 of EC50 for CC(=O)c1ccc(N(C)C(=O)c2cn3c(-c4ccc(C(F)(F)F)cc4)cnc3cn2)cc1 with P. falciparum (NF54 or 3D7 strain) and state it.
3.01

Recall the recorded log10 of EC50 for CN(Cc1cn2c(-c3ccc(OC(F)F)cc3)cnc2cn1)c1ccc(C#N)cc1 with P. falciparum (NF54 or 3D7 strain) and state it.
1.54

Recall the recorded log10 of EC50 for O=C1CCCCN1Cc1cn2c(-c3ccc(C(F)(F)F)cc3)cnc2cn1 with P. falciparum (NF54 or 3D7 strain) and state it.
3.29

Recall the recorded log10 of EC50 for CN(C(=O)c1cn2c(-c3ccc(NS(C)(=O)=O)cc3)cnc2cn1)c1ccc(C#N)cc1 with P. falciparum (NF54 or 3D7 strain) and state it.
3.02

Recall the recorded log10 of EC50 for CN(C(=O)c1cn2c(-c3ccc(N4CCCCC4)cc3)cnc2cn1)c1ccc(Cl)nc1 with P. falciparum (NF54 or 3D7 strain) and state it.
3.76

Recall the recorded log10 of EC50 for C[C@@H](N)CC(=O)Nc1ccc(-c2cnc3cnc(C(=O)N(C)c4ccc(C#N)cc4)cn23)cc1 with P. falciparum (NF54 or 3D7 strain) and state it.
2.81

Recall the recorded log10 of EC50 for CN(C(=O)c1cn2c(-c3ccc4[nH]cnc4c3)cnc2cn1)c1ccc(C#N)cc1 with P. falciparum (NF54 or 3D7 strain) and state it.
3.19

Recall the recorded log10 of EC50 for COc1ccc(N(C)C(=O)c2cn3c(-c4ccc(C(F)(F)F)cc4)cnc3cn2)nc1 with P. falciparum (NF54 or 3D7 strain) and state it.
3.59

Recall the recorded log10 of EC50 for CN(C(=O)c1cn2c(-c3ccc(-c4ccn[nH]4)cc3)cnc2cn1)c1ccc(Cl)cc1 with P. falciparum (NF54 or 3D7 strain) and state it.
1.61
